Data origin: patent US20240116985A1

# Experimental Target: T1, B-cat-Halo (beta-catenin HaloTag construct expressed in HEK293 cells) (UniProt P35222 1-781)
# T1 sequence (looked up): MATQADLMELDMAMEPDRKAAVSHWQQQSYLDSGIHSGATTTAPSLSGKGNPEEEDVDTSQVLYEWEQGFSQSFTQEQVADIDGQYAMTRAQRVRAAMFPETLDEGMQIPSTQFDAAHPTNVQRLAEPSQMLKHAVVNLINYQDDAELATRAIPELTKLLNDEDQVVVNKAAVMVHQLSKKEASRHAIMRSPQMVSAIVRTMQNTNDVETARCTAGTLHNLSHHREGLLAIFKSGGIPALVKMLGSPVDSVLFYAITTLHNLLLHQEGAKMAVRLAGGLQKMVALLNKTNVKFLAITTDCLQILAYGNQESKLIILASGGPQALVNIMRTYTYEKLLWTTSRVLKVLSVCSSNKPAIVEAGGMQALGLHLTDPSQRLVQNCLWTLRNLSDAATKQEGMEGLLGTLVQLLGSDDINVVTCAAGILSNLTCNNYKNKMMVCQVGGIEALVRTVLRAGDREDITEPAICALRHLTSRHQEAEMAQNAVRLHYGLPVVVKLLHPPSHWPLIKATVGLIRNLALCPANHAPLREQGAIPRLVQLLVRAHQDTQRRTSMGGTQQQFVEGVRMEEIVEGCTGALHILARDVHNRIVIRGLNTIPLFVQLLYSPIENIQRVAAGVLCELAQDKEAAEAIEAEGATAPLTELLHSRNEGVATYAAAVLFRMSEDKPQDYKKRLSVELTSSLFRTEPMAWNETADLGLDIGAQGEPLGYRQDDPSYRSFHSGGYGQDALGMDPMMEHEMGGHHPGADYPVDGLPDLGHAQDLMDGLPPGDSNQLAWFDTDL
# Experiment Description: cell-based or functional assay
Starred links: 1 amine or outer side, 2 acyl side, 3 side chain; linkers in the order of their positions; H or OH if unused. Positions of bridges follow the written chain, without caps; N, C: chain ends. Non-standard residues stand in square brackets, D forms with d. Primed or numbered codes have the meaning given here. PyrS2″ = (S)-3-amino-1-((pent-4-en-1-yloxy)carbonyl)pyrrolidine-3-carboxylic acid (stapling residue), C=CCCCOC(=O)N1CC[C@@](N[*:1])(C(=O)[*:2])C1; B5(4) = 2,2-bis(4-pentenyl)glycine = 2-amino-2-(pent-4-en-1-yl)hept-6-enoic acid (stitching residue), C=CCCCC(CCCC=C)(N[*:1])C(=O)[*:2]; B5(3) = 2,2-bis(4-pentenyl)glycine (stitching residue), C=CCCCC(CCCC=C)(N[*:1])C(=O)[*:2]; Phe(3-COOH) = N[C@@H](Cc1cccc(C(=O)O)c1)C(=O)O; Phe(2-CF3) = N[C@@H](Cc1ccccc1C(F)(F)F)C(=O)O; Met(O2) = CS(=O)(=O)CC[C@H](N)C(=O)O; Bta = N[C@@H](Cc1csc2ccccc12)C(=O)O; αAllylPro = C=CC[C@@]1(C(=O)O)CCCN1; tBuAla = CC(C)(C)C[C@H](N)C(=O)O; 3Thi = N[C@@H](Cc1ccsc1)C(=O)O; PyrS2(4) = not defined here
Reported Property: NanoBRET Abs IC50 (µM)
Report only the number, with the unit µM understood.

Would you please look over these solved cases?
Ac-[αAllylPro]D[tBuAla][B5(4)]D[Phe(3-COOH)]NAFL[PyrS2″][Phe(2-CF3)][Bta]A-NH2 (staple 1-4, 4-11) [I-2058] = 3.9
Ac-[αAllylPro]D[tBuAla][B5(3)]D[Phe(3-COOH)]QAFA[PyrS2(4)][3Thi][Bta]A-NH2 (staple 1-4, 4-11; reading uncertain; also: printed as Ac-PL3-Asp-Npg-B5-Asp-3COOHF-Gln-Ala-Phe-Ala-PyrS2-3Thi-BztA-Ala-NH2) [I-2053] = 5
Ac-[αAllylPro]D[tBuAla][B5(4)]D[Phe(3-COOH)]AAFL[PyrS2″][Phe(2-CF3)][Bta][Met(O2)]-NH2 (staple 1-4, 4-11) [I-2063] = 3.5

### Prompt Return NanoBRET Abs IC50 (reported value) for this binder: Ac-[αAllylPro]D[tBuAla][B5(4)]D[Phe(3-COOH)]QAFL[PyrS2″][3Thi][Bta]L-NH2 (staple 1-4, 4-11) [I-2056]
### Response 6.5
